Velvetleaf plant response rating: recorded values
Test system: velvetleaf
Assay: Test B pre/postemergence velvetleaf
Type: in vivo, Abutilon theophrasti
Settings: Rate 500 g/ha, Postemergence; scale 0 to 10
Experimental: […] At the same time, these crop and weed species were also treated with postemergence applications of test chemicals formulated in the same manner. […] Treated plants and controls were maintained in a greenhouse for twelve to sixteen days, after which all species were compared to controls and visually evaluated. […]

{"columns": ["Molecule", "Tested System", "Velvetleaf plant response rating"],
 "data": [
  ["CC1CCCCC1n1c(=O)on(C(=O)N(c2ccccc2)C(C)C)c1=O (stereo not shown)", "velvetleaf", 4],
  ["Cc1nsc(C)c1-n1c(=O)on(C(=O)N(c2ccc(Cl)cc2)C(C)C)c1=O", "velvetleaf", 0],
  ["CC(C)N(C(=O)n1oc(=O)n([C@@H](C)c2ccccc2)c1=O)c1ccc(F)cc1", "velvetleaf", 2],
  ["CCN(CC)C(=O)n1oc(=O)n(Cc2ccccc2)c1=O", "velvetleaf", 0]
]}

From: patent US6737383B1
